Source listed as the DeepSol protein solubility set.

- assay-method-text: soluble on expression in E. coli; label from the status in PepcDB or PDB records
readout-type: soluble on expression in E. coli

- polymer-sequence: "MGSDKIHHHHHHMEQHQVWAYQTKTHSVTLNSVDIPALAADDILVQNQAIGINPVDWKFIKANPINWSNGHVPGVDGAGVIVKVGAKVDSKMLGRRVAYHTSLKRHGSFAEFTVLNTDRVMTLPDNLSFERAAALPCPLLTAWQAFEKIPLTKQREVLIVGFGAVNNLLTQMLNNAGYVVDLVSASLSQALAAKRGVRHLYREPSQVTQKYFAIFDAVNSQNAAALVPSLKANGHIICIQDRIPAPIDPAFTRTISYHEIALGALHDFGDRQDWQILMQQGEALLTLIAQGKMEIAAPDIFRFEQMIEALDHSEQTKLKTVLTLNE"
  readout-type: "soluble on expression in E. coli"
  recorded-value: "not soluble"
- polymer-sequence: "MSLAKEPLIRVLLIEDDPMVQEVNRMFVEKLSGFTIVGTTATGEEGMVKTRELQPDLILLDIFMPKQDGLSFIKQIREQYIDVDIIAVTAANDTKTIKTLLRYGVMDYLVKPFTFERLKAALTQYEEMFRKMQKEAELSQDSLDEMIKQKQAQANMDDLPKGLHAHTLQQVIERLEELDEPKSAEEIGRDVGLARVTVRRYLNYLESVGQVEMDLTYGSIGRPIQTYKLKEGHHHHHH"
  readout-type: "soluble on expression in E. coli"
  recorded-value: "soluble"
- polymer-sequence: "MARKKTITKEQILTAAYEVVATEGFSKFTARNIANKMKCSTQPIYLEFKNMDDLRDALFQKIHKYLAKEVFPVKHTGNTIVDLALNYIHFATSESKLYRALYLEEYGGGKKMQEFSYHYFTEAVKADPEYANLNDVQIDSLHMGTWVVATGVAALMTSGIIHPSEEQIIHLMKDSIEAILERDEPIDIDL"
  readout-type: "soluble on expression in E. coli"
  recorded-value: "soluble"
- polymer-sequence: "MQVSGSSGNRIWDANLSQNLTYTWTPQTYSGFYYDLDTGEGSENMTIQLTEGSRSVQRNGLQYETRPIETNFEYGNWGSYQVIGFMAERYFAGYTENSNFVNDDISVISDGQLSKILIDSDDRKSLYTGSSLILEEGYSLNIVEVDVNGNTVWVQLEKDGDVIDNGFLSSNSNYVYETDLGDADDVPLIAVHLAQIFRGTETNAIFVEGIFQISDEYVQIENGDRFGKMEISSTSSSGIIMRNRDSFTLGRGDTVDIMGKLSFVVADSSELRFAPIVEISEPGTYELRLEHHHHHH"
  readout-type: "soluble on expression in E. coli"
  recorded-value: "not soluble"
- polymer-sequence: "MFKAIVSAATLRDALDSVSVLVDECKIRLNEESLSIRAVDPANVGMVDLTLDAAAFESYEAHGGVIGVNLSRLEEVAGMAGAGDLIHLTLDEETRKLNIRIDGLSYTLALIDPDSIRQEPDIPDLDLAANIVLEGTHLDRGIKAADMVSDHIRLRVDGAEETFHIEAEGDTDDVDLSLPPADLISIEAGAADSLFSLDYLKDMNKAIPTDAEVTVELGEEFPVKLHYQIAEGMGTITYMLAPRIQSD"
  readout-type: "soluble on expression in E. coli"
  recorded-value: "soluble"
- polymer-sequence: "MDFITDMSKNQRLELQNRLAQYETSLMVMSHNGDVPVITGFNVMRVTTMLDALKVELPAVAVLGDDAQDLAYVFGARPLAVGVNIIRVVDVPGQQPSALVDAELGALHEVSMVRVLNDIADEQLVKANM"
  readout-type: "soluble on expression in E. coli"
  recorded-value: "soluble"
- polymer-sequence: "ELASDVYNKRIWIKDMQADKGKVQLMKGLYWYFDKDPHLLLGGGTGGGKTFTILSLIYALCRVGEMEICDPKNSDLMALGKLPMFAGKVHTGKTDIVNCLKNAVELMNARFEMMNNSPDYKMGKNYAYYGLKPKFIVIDEFAAFKAELANDYSTDGEVDEYLTQLILKARQCGIFLIVAMQRPDG"
  readout-type: "soluble on expression in E. coli"
  recorded-value: "not soluble"
- polymer-sequence: "RYTNILVPVDSSDAAQAAFTEAVNIAQRHQANLTALYVVDDSAYHTPALDPVLSELLDAEAAHAKDAMRQRQQFVATTSAPNLKTEISYGIPKHTIEDYAKQHPEIDLIVLGATGTNSPHRVAVGSTTSYVVDHAPCNVIVIR"
  readout-type: "soluble on expression in E. coli"
  recorded-value: "soluble"

Return reported soluble on expression in E. coli; argument: MAHHHHHHMDPSVSLEGIVDLTASNFDEHVGKGVPALVEFYAPWCGHCKKMVPEFEKVGQAVKTARDKVLVGKVDATQNRDLAERFGVNGYPTILFFPADSQTKQQYSEAREAAAFLSFLNRQVPGLNIGVPHEHTYAVELTKRNFDAVVMDEAKDALVMFYAPWCGHCKKLHPVFERLATAFKEEADIVIGKLNADDASNGAVRNRYKVDGYPTLAFFQKRSKSEPQYYSGGRSLEELVEYVNERTGKNRLPSGDLSEKVGVNDELSKVLRDMMLKEKSVDEKKQYLEKVKKAAADLTGVEAVHYPRIAEKILQLGAEYVEMELGRIARLKQGDVKGEKRDMLTIRNNILASLKDE
not soluble

Field request: soluble on expression in E. coli | item: MAHHHHHHMLHEPVSTANGHMPRRSSLGCRLRSSPFLSCVAYVNTLTCDSLMHALRATVSQRIATGVDVECHRLTSGAAVVSTPTQVHISITSANFVRQRSSRPALLPLLTHPPPPSPSLHPVMSRSRQQQAAEVTLHHFFKTERVIRLECERREAKARLKLIDIMSGDLDDQLLCVAQFKKEWLQSRRVLEEARQAVVQEEGSKRAYVEEEYVRTINTMSRHYHPLSSRVV
not soluble

// query soluble on expression in E. coli value for entry QREIQGVRHFVADLSEAARLGLVPGEHYFCVSSIRVDRQHDGAPLCWTDVYAQRDYTAVIELAREHPDQLIAGLIEQHYGRAIAVVDQQVRAVLLTAEMARALKAEAGSPGLKIIRHYREENGDLMAVSETVHPDDRFT
not soluble

Please give the measured soluble on expression in E. coli for this sequence: MSIAEFAYKEKPETLVLFDVDGTLTPARLTVSEEVRKTLAKLRNKCCIGFVGGSDLSKQLEQLGPNVLDEFDYSFSENGLTAYRLGKELASQSFINWLGEEKYNKLAVFILRYLSEIDLPKRRGTFLEFRNGMINVSPIGRNASTEERNEFERYDKEHQIRAKFVEALKKEFPDYGLTFSIGGQISFDVFPAGWDKTYCLQHVEKDGFKEIHFFGDKTMVGGNDYEIFVDERTIGHSVQSPDDTVKILTELFNL
soluble
